- experiment-summary: Pharmacokinetic study in dog
- Type: in vivo, Beagle dogs
- test-context: beagle, plasma, PO, 10 mg/Kg, read-out: AUC0-inf-obs
metric-name: AUC(0-inf) (ng·h/mL)
Give just the numeric value; ng·h/mL need not be written.

Documented AUC(0-inf) of CP1(=O)CCN(CC#Cc2ccc3ncnc(Nc4ccc(OCc5cccc(F)c5)c(Cl)c4)c3c2)CC1 [Example 4] : 7720

* * *

- experiment-summary: Pharmacokinetic study in rat
- Type: in vivo
- test-context: plasma, IV, 2 mg/Kg
metric-name: AUC(0-t) (ng·h/mL)
# value in ng·h/mL; strip the unit string

For record CP1(=O)CCN(CC#Cc2ccc3ncnc(Nc4ccc(OCc5cccc(F)c5)c(Cl)c4)c3c2)CC1 [Example 4] the listed AUC(0-t) is 2130

* * *

- experiment-summary: Pharmacokinetic study in rat
- Format: in vivo
- test-context: plasma, IV, 2 mg/Kg
- Method: The dog PK protocol is shown here, while PK study protocol of mouse and rat are similar to dog. Beagle dogs of this study were 6-8 month old and weighed 8 to 10 kg. Example 4 was dissolved in 2% DMA and 98% (40% HP-β-CD in deionized water) to yield concentration at 2 mg/mL for both intravenous (IV, a bolus injection via the lateral tail vein) and oral (PO, via oral gavage) administrations. […]
metric-name: Cmax (ng/mL)
Respond with the bare value in ng/mL.

// Cmax value for CP1(=O)CCN(CC#Cc2ccc3ncnc(Nc4ccc(OCc5cccc(F)c5)c(Cl)c4)c3c2)CC1 : 1570

* * *

- experiment-summary: Pharmacokinetic study in dog
- Format: in vivo, Beagle dogs
- test-context: beagle, plasma, IV, 2 mg/Kg
metric-name: AUC(0-t) (ng·h/mL)
All answers are understood in ng·h/mL, so give the number only.

# compound CP1(=O)CCN(CC#Cc2ccc3ncnc(Nc4ccc(OCc5cccc(F)c5)c(Cl)c4)c3c2)CC1 ; its AUC(0-t) = 1480

* * *

- experiment-summary: Pharmacokinetic study in mouse
- Assay type: in vivo
- test-context: plasma, IV, 2 mg/Kg
metric-name: AUC(0-t) (ng·h/mL)
Respond numerically; units are ng·h/mL and should not be typed.

Memo: CP1(=O)CCN(CC#Cc2ccc3ncnc(Nc4ccc(OCc5cccc(F)c5)c(Cl)c4)c3c2)CC1 , reported AUC(0-t): 5070

* * *

- experiment-summary: Pharmacokinetic study in mouse
- Assay type: in vivo
- test-context: plasma, PO, 10 mg/Kg
metric-name: Cmax (ng/mL)
Field format: number, assumed ng/mL, no unit text.

Cmax for CP1(=O)CCN(CC#Cc2ccc3ncnc(Nc4ccc(OCc5cccc(F)c5)c(Cl)c4)c3c2)CC1 [Example 4] is 2840

* * *

- experiment-summary: Pharmacokinetic study in rat
- Type: in vivo
- Set-up: unit not given here
- test-context: plasma, IV, 2 mg/Kg
metric-name: clearance
Output: the number by itself.

The compound identified as CP1(=O)CCN(CC#Cc2ccc3ncnc(Nc4ccc(OCc5cccc(F)c5)c(Cl)c4)c3c2)CC1 registered its clearance at 15.3

* * *

- experiment-summary: Pharmacokinetic study in dog
- Format: in vivo, Beagle dogs
- test-context: beagle, plasma, IV, 2 mg/Kg, read-out: T½ (converted)
metric-name: half-life
Write your answer as a measured quantity: the number, then the unit.

Form field half-life, entry CP1(=O)CCN(CC#Cc2ccc3ncnc(Nc4ccc(OCc5cccc(F)c5)c(Cl)c4)c3c2)CC1 : 2.46 h
